# protocol-details: Surface tension measurement (Tracker tensiometer)
# Format: physicochemical
# assay-conditions: concentration 1.000 %; room temperature
# Description: Surface tension measurements were conducted on a Tracker tensiometer (Teclis Instruments) at room temperature. Various concentrations of surfactant solutions were prepared and measurements were conducted. The surface tension as a function of concentration of the cationic surfactant samples were measured and are listed in Table 2, where NT means not tested.
recorded-metric: Surface tension (mN/m)
Numbers only, in mN/m.

Some solved entries appear below for comparison.
compound	Surface tension / mN/m
CCCCCCCCCCCCCCCCCC[N+](C)(C)CC(O)CN(CCN(CCN(CC(O)C[N+](C)(C)CCCCCCCCCCCCCCCCCC)CC(O)C[N+](C)(C)CCCCCCCCCCCCCCCCCC)CC(O)C[N+](C)(C)C)CC(O)C[N+](C)(C)C.[Cl-].[Cl-].[Cl-].[Cl-].[Cl-] (centres unmarked)	47.48
CCCCCCCCCCCCCCCCCC[N+](C)(C)CC(O)CN(CCN(CCN(CC(O)C[N+](C)(C)C)CC(O)C[N+](C)(C)CCCCCCCCCCCCCCCCCC)CC(O)C[N+](C)(C)C)CC(O)C[N+](C)(C)C.[Cl-].[Cl-].[Cl-].[Cl-].[Cl-] (centres unmarked)	49.38
CCCCCCCCCCCCCCCCCC[N+](C)(C)CC(O)CN(CCN(CCN(CC(O)C[N+](C)(C)CCCCCCCCCCCCCCCCCC)CC(O)C[N+](C)(C)CCCCCCCCCCCCCCCCCC)CC(O)C[N+](C)(C)C)CC(O)C[N+](C)(C)CCCCCCCCCCCCCCCCCC.[Cl-].[Cl-].[Cl-].[Cl-].[Cl-] (centres unmarked)	46.58
CCCCCCCCCCCCCCCCCC[N+](C)(C)CC(O)CN(CCN(CCN(CC(O)C[N+](C)(C)CCCCCCCCCCCCCCCCCC)CC(O)C[N+](C)(C)CCCCCCCCCCCCCCCCCC)CC(O)C[N+](C)(C)CCCCCCCCCCCCCCCCCC)CCN(CC(O)C[N+](C)(C)CCCCCCCCCCCCCCCCCC)CC(O)C[N+](C)(C)CCCCCCCCCCCCCCCCCC.[Cl-].[Cl-].[Cl-].[Cl-].[Cl-].[Cl-] (centres unmarked)	47.78

Now take the following compound into account.
The recorded Surface tension for entry CCCCCCCCCCCCCCCCCC[N+](C)(C)CC(O)CN(CCN(CC(O)C[N+](C)(C)CCCCCCCCCCCCCCCCCC)CC(O)C[N+](C)(C)CCCCCCCCCCCCCCCCCC)CCN(CC(O)C[N+](C)(C)CCCCCCCCCCCCCCCCCC)CC(O)C[N+](C)(C)CCCCCCCCCCCCCCCCCC.[Cl-].[Cl-].[Cl-].[Cl-].[Cl-] (centres unmarked) equals 44.22

====

Kindly state Surface tension for each of the entries shown.
# protocol-details: Surface tension measurement (Tracker tensiometer)
# Format: physicochemical
# assay-conditions: concentration 0.100 %; room temperature
Answers are plain numbers, in mN/m.

Please review the following examples before continuing.
compound	scale-unit	readout-number
CCCCCCCCCCCCCCCCCC[N+](C)(C)CC(O)CN(CCN(CCN(CC(O)C[N+](C)(C)CCCCCCCCCCCCCCCCCC)CC(O)C[N+](C)(C)CCCCCCCCCCCCCCCCCC)CC(O)C[N+](C)(C)C)CC(O)C[N+](C)(C)CCCCCCCCCCCCCCCCCC.[Cl-].[Cl-].[Cl-].[Cl-].[Cl-] (stereo not shown)	mN/m	53.23
CCCCCCCCCCCCCCCCCC[N+](C)(C)CC(O)CN(CCN(CCN(CC(O)C[N+](C)(C)C)CC(O)C[N+](C)(C)C)CC(O)C[N+](C)(C)C)CC(O)C[N+](C)(C)C.[Cl-].[Cl-].[Cl-].[Cl-].[Cl-] (stereo not shown)	mN/m	60.93
CCCCCCCCCCCCCCCCCC[N+](C)(C)CC(O)CN(CCN(CCN(CC(O)C[N+](C)(C)CCCCCCCCCCCCCCCCCC)CC(O)C[N+](C)(C)CCCCCCCCCCCCCCCCCC)CC(O)C[N+](C)(C)CCCCCCCCCCCCCCCCCC)CCN(CC(O)C[N+](C)(C)CCCCCCCCCCCCCCCCCC)CC(O)C[N+](C)(C)CCCCCCCCCCCCCCCCCC.[Cl-].[Cl-].[Cl-].[Cl-].[Cl-].[Cl-] (stereo not shown)	mN/m	52.65

Per the record, CCCCCCCCCCCCCCCCCC[N+](C)(C)CC(O)CN(CCN(CCN(CC(O)C[N+](C)(C)CCCCCCCCCCCCCCCCCC)CC(O)C[N+](C)(C)CCCCCCCCCCCCCCCCCC)CC(O)C[N+](C)(C)C)CC(O)C[N+](C)(C)C.[Cl-].[Cl-].[Cl-].[Cl-].[Cl-] (stereo not shown) has Surface tension of 52.64
